We begin with a simple list: items and their reported Cmax.
# method description: Cmax in Sprague-Dawley rat at 10 mg/kg, po and 10 mg/kg iv
# Format: ADME, organism-based
# condition summary: in vivo
Answer with a number only, understood to be in ng/mL.

The cases that follow already have their Cmax on record.
>>> readout_number("CCN(CC)CCN1CCCc2[nH]c(/C=C3\\C(=O)Nc4ccc(F)cc43)c(C)c2C1=O")
2410
>>> readout_number("CCN(CC)CCN1CCc2[nH]c(/C=C3\\C(=O)Nc4ccc(F)cc43)c(C)c2C1=O")
450
>>> readout_number("Cc1c(/C=C2\\C(=O)Nc3ccc(F)cc32)[nH]c2c1C(=O)N(C[C@H](O)CN1CCOCC1)CCC2")
9030

Data point: Cc1c(/C=C2\C(=O)Nc3ccc(F)cc32)[nH]c2c1C(=O)N(C[C@H](O)CN1CCOCC1)CC2 ; Cmax = 6110
